The values you see were collected from PubChem BioAssay AID2060489.

- System: 922993-354-T-J3-PDC complex spheroids, viability
- METHOD_NOTES: Anticancer human tumor 922993-354-T-J3-PDC patient-derived endometrial carcinoma cell line growth inhibition [GQUAD]
- CONDITION_DESCRIPTION: second compound 1 µM; first compound 0.316 µM; stronger effect = lower value
Entries and their measured viability, T/C follow.

>  <COMPOUND>
C#Cc1c(F)ccc2cc(O)cc(-c3ncc4c(N5CC6CCC(C5)N6)nc(OCC56CCCN5CC(F)C6)nc4c3F)c12 (stereo not given) + Cc1[nH]c2ccc(F)cc2c1-c1nc2c3cccnc3c3ncccc3c2[nH]1

>  <viability, T/C>
99.5%

$$$$
>  <COMPOUND>
COc1ncnc(C2CC2)c1-c1ncc2cnn(Cc3ccc(-c4nc(C(F)(F)F)cn4C(C)C)cc3)c2n1 + Cc1cnc(CNC(=O)c2c(=O)c3ccc(N4CCCN(C)CC4)nc3n3c2sc2ccccc23)cn1

>  <viability, T/C>
41.6%

$$$$
>  <COMPOUND>
COc1ncnc(C2CC2)c1-c1ncc2cnn(Cc3ccc(-c4nc(C(F)(F)F)cn4C(C)C)cc3)c2n1 + Cc1[nH]c2ccc(F)cc2c1-c1nc2c3cccnc3c3ncccc3c2[nH]1

>  <viability, T/C>
107%

$$$$
>  <COMPOUND>
COc1ccc([C@@H](O)c2cc(-c3ncnc4cc(N5CCOCC5)ccc34)c(F)cc2Cl)nn1 + Cc1cnc(CNC(=O)c2c(=O)c3ccc(N4CCCN(C)CC4)nc3n3c2sc2ccccc23)cn1

>  <viability, T/C>
56.7%

$$$$
>  <COMPOUND>
CC[C@@]1(O)C(=O)OCc2c1cc1n(c2=O)Cc2cc3c(CN(C)C)c(O)ccc3nc2-1 + Cc1cnc(CNC(=O)c2c(=O)c3ccc(N4CCCN(C)CC4)nc3n3c2sc2ccccc23)cn1

>  <viability, T/C>
36.2%

$$$$
>  <COMPOUND>
CC(C)(O)C1CCC(Nc2ccc3ncc(-c4cccc(C(F)(F)F)c4)n3n2)CC1 (stereo not given) + Cc1[nH]c2ccc(F)cc2c1-c1nc2c3cccnc3c3ncccc3c2[nH]1

>  <viability, T/C>
92.6%

$$$$
>  <COMPOUND>
CC(=O)O[C@H]1C(=O)[C@@]2(C)[C@H]([C@H](OC(=O)c3ccccc3)[C@]3(O)C[C@H](OC(=O)[C@H](O)[C@@H](NC(=O)c4ccccc4)c4ccccc4)C(C)=C1C3(C)C)[C@]1(OC(C)=O)CO[C@@H]1C[C@@H]2O + CN(C)c1ccc(Nc2c3ccc(NC(=O)CCN4CCCC4)cc3nc3cc(NC(=O)CCN4CCCC4)ccc23)cc1

>  <viability, T/C>
96.4%

$$$$
>  <COMPOUND>
CC1COCCN1c1cc(C2(S(C)(=N)=O)CC2)nc(-c2ccnc3[nH]ccc23)n1 (stereo not given) + CN(C)c1ccc(Nc2c3ccc(NC(=O)CCN4CCCC4)cc3nc3cc(NC(=O)CCN4CCCC4)ccc23)cc1

>  <viability, T/C>
99.9%

$$$$
>  <COMPOUND>
CC(=O)O[C@H]1C(=O)[C@@]2(C)[C@H]([C@H](OC(=O)c3ccccc3)[C@]3(O)C[C@H](OC(=O)[C@H](O)[C@@H](NC(=O)c4ccccc4)c4ccccc4)C(C)=C1C3(C)C)[C@]1(OC(C)=O)CO[C@@H]1C[C@@H]2O + Cc1[nH]c2ccc(F)cc2c1-c1nc2c3cccnc3c3ncccc3c2[nH]1

>  <viability, T/C>
119%

$$$$
>  <COMPOUND>
O=C(NO)c1cnc(N2CCN(S(=O)(=O)c3ccc4ccccc4c3)CC2)nc1 + Cc1cnc(CNC(=O)c2c(=O)c3ccc(N4CCCN(C)CC4)nc3n3c2sc2ccccc23)cn1

>  <viability, T/C>
28.4%

$$$$

====

- System: 922993-354-T-J3-PDC complex spheroids, viability
- METHOD_NOTES: Anticancer human tumor 922993-354-T-J3-PDC cell line growth inhibition [GQUAD];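 also: spheroids exposed to compounds for seven days; 100% = DMSO vehicle control viability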
- CONDITION_DESCRIPTION: second compound 1 µM; first compound 0.0999 µM; stronger effect = lower value
Entries and their viability, T/C
PROPERTY_MEASURED: viability, T/C

>  <COMPOUND>
Cn1ncnc1[C@H]1c2n[nH]c(=O)c3cc(F)cc(c23)N[C@@H]1c1ccc(F)cc1 + CN(C)c1ccc(Nc2c3ccc(NC(=O)CCN4CCCC4)cc3nc3cc(NC(=O)CCN4CCCC4)ccc23)cc1

>  <VALUE_REPORTED>
109%

$$$$
>  <COMPOUND>
Cc1[nH]c2ccccc2c1CCNCc1ccc(/C=C/C(=O)NO)cc1 + Cc1cnc(CNC(=O)c2c(=O)c3ccc(N4CCCN(C)CC4)nc3n3c2sc2ccccc23)cn1

>  <VALUE_REPORTED>
33.9%

$$$$
>  <COMPOUND>
CC[C@@]1(O)C(=O)OCc2c1cc1n(c2=O)Cc2cc3c(CN(C)C)c(O)ccc3nc2-1 + Cc1cnc(CNC(=O)c2c(=O)c3ccc(N4CCCN(C)CC4)nc3n3c2sc2ccccc23)cn1

>  <VALUE_REPORTED>
49.1%

$$$$

====

Listed here are molecules together with their documented viability, T/C.
- Tested on: 922993-354-T-J3-PDC complex spheroids, viability
- METHOD_NOTES: Anticancer human tumor 922993-354-T-J3-PDC cell line growth inhibition [GQUAD];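 also: spheroids exposed to compounds for seven days; 100% = DMSO vehicle control viability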
- CONDITION_DESCRIPTION: second compound 0.316 µM; first compound 0.1 µM; stronger effect = lower value
- Source text: DNA G-quadruplex Stabilizer Agents in Combinations in Complex Spheroids A high-throughput screen of multi-cell type tumor spheroids was designed to identify active combinations of DNA G-quadruplex stabilizer agents and targeted small molecules. […] Compounds. […] If the clinical Cmax for an agent had not been determined, the highest concentration tested was 10 microM. […]
PROPERTY_MEASURED: viability, T/C (%)

>  <MOLECULE>
CC(=O)O[C@H]1C(=O)[C@@]2(C)[C@H]([C@H](OC(=O)c3ccccc3)[C@]3(O)C[C@H](OC(=O)[C@H](O)[C@@H](NC(=O)c4ccccc4)c4ccccc4)C(C)=C1C3(C)C)[C@]1(OC(C)=O)CO[C@@H]1C[C@@H]2O + CN(C)c1ccc(Nc2c3ccc(NC(=O)CCN4CCCC4)cc3nc3cc(NC(=O)CCN4CCCC4)ccc23)cc1

>  <EXPERIMENTAL_TARGET>
922993-354-T-J3-PDC complex spheroids, viability

>  <VALUE_REPORTED>
82.3

$$$$
>  <MOLECULE>
O=C(c1cc(Cc2n[nH]c(=O)c3ccccc23)ccc1F)N1CCN(C(=O)C2CC2)CC1 + Cc1[nH]c2ccc(F)cc2c1-c1nc2c3cccnc3c3ncccc3c2[nH]1

>  <EXPERIMENTAL_TARGET>
922993-354-T-J3-PDC complex spheroids, viability

>  <VALUE_REPORTED>
90

$$$$
>  <MOLECULE>
CC(C)(O)C1CCC(Nc2ccc3ncc(-c4cccc(C(F)(F)F)c4)n3n2)CC1 (stereo not given) + Cc1cnc(CNC(=O)c2c(=O)c3ccc(N4CCCN(C)CC4)nc3n3c2sc2ccccc23)cn1

>  <EXPERIMENTAL_TARGET>
922993-354-T-J3-PDC complex spheroids, viability

>  <VALUE_REPORTED>
58.8

$$$$
>  <MOLECULE>
Cc1cccc(N(C)C(=O)C2C(O)CCN2c2nc(C)cc(C(F)(F)F)c2C#N)c1 (stereo not given) + CN(C)c1ccc(Nc2c3ccc(NC(=O)CCN4CCCC4)cc3nc3cc(NC(=O)CCN4CCCC4)ccc23)cc1

>  <EXPERIMENTAL_TARGET>
922993-354-T-J3-PDC complex spheroids, viability

>  <VALUE_REPORTED>
105

$$$$
>  <MOLECULE>
CCCS(=O)(=O)Nc1ccc(F)c(C(=O)c2c[nH]c3ncc(-c4ccc(Cl)cc4)cc23)c1F + Cc1cnc(CNC(=O)c2c(=O)c3ccc(N4CCCN(C)CC4)nc3n3c2sc2ccccc23)cn1

>  <EXPERIMENTAL_TARGET>
922993-354-T-J3-PDC complex spheroids, viability

>  <VALUE_REPORTED>
40.9

$$$$
>  <MOLECULE>
COc1cccc2c1C(=O)c1c(O)c3c(c(O)c1C2=O)CC(O)(C(=O)CO)CC3OC1CC(N)C(O)C(C)O1 (stereo not given) + Cc1[nH]c2ccc(F)cc2c1-c1nc2c3cccnc3c3ncccc3c2[nH]1

>  <EXPERIMENTAL_TARGET>
922993-354-T-J3-PDC complex spheroids, viability

>  <VALUE_REPORTED>
105

$$$$
>  <MOLECULE>
Nc1ccn(C2OC(CO)C(O)C2(F)F)c(=O)n1 (stereo not given) + Cc1[nH]c2ccc(F)cc2c1-c1nc2c3cccnc3c3ncccc3c2[nH]1

>  <EXPERIMENTAL_TARGET>
922993-354-T-J3-PDC complex spheroids, viability

>  <VALUE_REPORTED>
23.4

$$$$
>  <MOLECULE>
CC1COCCN1c1cc(C2(O)CC3CCC(C2)O3)c2cnn(-c3ccn[nH]3)c2n1 (stereo not given) + CN(C)c1ccc(Nc2c3ccc(NC(=O)CCN4CCCC4)cc3nc3cc(NC(=O)CCN4CCCC4)ccc23)cc1

>  <EXPERIMENTAL_TARGET>
922993-354-T-J3-PDC complex spheroids, viability

>  <VALUE_REPORTED>
86.1

$$$$
>  <MOLECULE>
COc1ncnc(C2CC2)c1-c1ncc2cnn(Cc3ccc(-c4nc(C(F)(F)F)cn4C(C)C)cc3)c2n1 + CN(C)c1ccc(Nc2c3ccc(NC(=O)CCN4CCCC4)cc3nc3cc(NC(=O)CCN4CCCC4)ccc23)cc1

>  <EXPERIMENTAL_TARGET>
922993-354-T-J3-PDC complex spheroids, viability

>  <VALUE_REPORTED>
86

$$$$
>  <MOLECULE>
CC1COCCN1c1cc(C2(S(C)(=N)=O)CC2)nc(-c2ccnc3[nH]ccc23)n1 (stereo not given) + Cc1[nH]c2ccc(F)cc2c1-c1nc2c3cccnc3c3ncccc3c2[nH]1

>  <EXPERIMENTAL_TARGET>
922993-354-T-J3-PDC complex spheroids, viability

>  <VALUE_REPORTED>
117

$$$$
